- Target Or Test System: butyrylcholinesterase (BuChE, E.C. 3.1.1.8, from equine serum) (Equus caballus)
- Construct: butyrylcholinesterase (BuChE, E.C. 3.1.1.8, from equine serum); purchased Sigma-Aldrich (Steinheim, Germany); host or cells: equine serum (natural source)
- Sequence (P81908 whole entry): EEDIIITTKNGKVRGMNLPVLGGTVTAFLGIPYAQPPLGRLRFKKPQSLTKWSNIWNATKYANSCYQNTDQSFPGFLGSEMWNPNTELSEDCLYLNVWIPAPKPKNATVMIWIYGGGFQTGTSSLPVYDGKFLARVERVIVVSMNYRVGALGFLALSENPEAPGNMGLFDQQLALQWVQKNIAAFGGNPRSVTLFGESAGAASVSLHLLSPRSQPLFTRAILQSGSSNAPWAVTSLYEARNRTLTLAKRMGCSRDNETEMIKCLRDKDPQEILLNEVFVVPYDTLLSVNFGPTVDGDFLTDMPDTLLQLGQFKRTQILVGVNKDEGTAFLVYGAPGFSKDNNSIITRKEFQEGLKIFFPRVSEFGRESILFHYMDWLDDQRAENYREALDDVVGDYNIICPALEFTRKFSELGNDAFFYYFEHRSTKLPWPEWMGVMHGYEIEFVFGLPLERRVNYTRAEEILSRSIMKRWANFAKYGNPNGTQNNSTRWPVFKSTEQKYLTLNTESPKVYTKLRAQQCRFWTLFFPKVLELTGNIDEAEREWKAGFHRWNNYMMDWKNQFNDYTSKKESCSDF
- Assay Details: biochemical
- Run Conditions: means ± SD of three experiments; read-out: BuChE IC50
A collection of molecules and their measured pIC50
Recall that pIC50 is obtained by taking minus log10 of the concentration measured in molar.

# annotated cases, reported pIC50 shown
{"columns": ["Molecule", "pIC50"],
 "data": [
  ["COc1ccc2nc(-c3ccc(O)c(C)c3O)[nH]c2c1", 6.93],
  ["Cc1c(O)ccc(-c2nc3ccc([N+](=O)[O-])cc3[nH]2)c1O", 4.05],
  ["COc1ccc2nc(-c3cc(Cl)c(O)cc3O)[nH]c2c1", 4.73],
  ["CCc1cc(-c2nc3cc(C(F)(F)F)cc(Cl)c3[nH]2)c(O)cc1O", 4.34],
  ["Cc1c(O)ccc(-c2nc3ccc(C(F)(F)F)cc3[nH]2)c1O", 4.85]
]}

Quick check: pIC50 of `CCOC(=O)c1ccc2[nH]c(-c3ccc(O)c(C)c3O)nc2c1` ?
4.60

Quick check: pIC50 of `Oc1cc(O)c(-c2nc3cc(Cl)c(Cl)cc3[nH]2)cc1Cl` ?
4.64

Quick check: pIC50 of `CCOC(=O)c1ccc2[nH]c(-c3cc(CC)c(O)cc3O)nc2c1` ?
4.36
